The values you see were collected from the Human Domainome abundance scans (Beltran et al. 2025).

B1: Ankyrin repeat and SAM domain-containing protein 6, residues 774 to 836; numbered along this chain, Q68DC2 (parent)
chain: DEDELTGILKKLSLEKYQPIFEEQEVDMEAFLTLTDGDLKELGIKTDGSRQQILAAISELNAG

# Variants of: B1
# experimental_protocol: abundance fitness (aPCA) (normalised: wild type 0, dead -1); higher = more abundant; growth selection in yeast, the domain comes from the species named
# measurement_context: Homo sapiens
The entries below are paired with their reported abundance fitness.
quantity_name: abundance fitness

>>> print(df.to_string())
    mutation_code      quantity_name  assay_result
 0           Q24D  abundance fitness        -0.369
 1           D38F  abundance fitness         -1.28
 2           Y17W  abundance fitness        -0.043
 3           L12E  abundance fitness        -0.949
 4            E2P  abundance fitness         0.112
 5           I20E  abundance fitness        -0.299
 6           K10H  abundance fitness        -0.406
 7           F21R  abundance fitness        -0.609
 8           S13P  abundance fitness        -0.736
 9           G63N  abundance fitness        -0.266
10           I20V  abundance fitness         0.101
11           K11E  abundance fitness        -0.391
12           I53E  abundance fitness        -0.319
13            E4T  abundance fitness        -0.201
14            E4A  abundance fitness        -0.527
15           I57G  abundance fitness         -0.37
16           E25H  abundance fitness        -0.048
17           S13R  abundance fitness         -0.04
18            G7E  abundance fitness        -0.016
19            L9F  abundance fitness        -0.077
20            L9I  abundance fitness        -0.741
21            D1A  abundance fitness        -0.023
22            D1N  abundance fitness         0.113
23           L54M  abundance fitness        -0.137
24           G48Y  abundance fitness        -0.321
25           V26M  abundance fitness        -0.024
26           L12W  abundance fitness        -0.061
27           T35G  abundance fitness        -0.199
28           A30P  abundance fitness        -0.784
29           G63K  abundance fitness        -0.166
30            E4L  abundance fitness        -0.326
31           A30I  abundance fitness        -0.164
32           K45Y  abundance fitness        -0.233
33           E23V  abundance fitness        -0.593
34            E4S  abundance fitness        -0.148
35            L9Y  abundance fitness        -0.935
36            G7A  abundance fitness         0.042
37            D3L  abundance fitness         0.133
38           F31K  abundance fitness        -0.362
39           D47Y  abundance fitness        -0.114
40           F31D  abundance fitness         -0.51
41           K16S  abundance fitness        -0.103
42           E22C  abundance fitness        -0.299
43           Q18M  abundance fitness        -0.035
44           L39Q  abundance fitness        -0.605
45           A55F  abundance fitness        -0.256
46           P19M  abundance fitness        -0.035
47           Q51R  abundance fitness        -0.092
48           G37S  abundance fitness        -0.058
49           K45L  abundance fitness        -0.066
50           L14K  abundance fitness        -0.918
51           E29Q  abundance fitness        -0.097
52           E23I  abundance fitness        -0.317
53           N61Y  abundance fitness        -0.345
54           A30V  abundance fitness        -0.093
55           A62L  abundance fitness        -0.178
56           G48Q  abundance fitness        -0.039
57           I53P  abundance fitness         -0.44
58           K45H  abundance fitness        -0.076
59           E59K  abundance fitness          0.02
60           A62M  abundance fitness          -0.2
61           L14A  abundance fitness         -0.94
62           F31W  abundance fitness        -0.432
63           K45E  abundance fitness         0.013
64           S49Q  abundance fitness         -0.03
65           K16R  abundance fitness        -0.203
66           Q24K  abundance fitness        -0.042
67           G63R  abundance fitness         0.073
68           I57T  abundance fitness        -0.221
69           S13F  abundance fitness         -0.62
70           L34C  abundance fitness        -0.459
71           K10A  abundance fitness        -0.069
72           Q18R  abundance fitness        -0.025
73           P19R  abundance fitness        -0.116
74            I8R  abundance fitness        -0.238
75            G7I  abundance fitness         0.129
76           K16E  abundance fitness         0.175
77           A55T  abundance fitness         0.063
78            I8S  abundance fitness        -0.265
79           E22Q  abundance fitness        -0.104
80           L54Y  abundance fitness        -0.634
81           A56G  abundance fitness         0.009
82           G43S  abundance fitness        -0.477
83           M28E  abundance fitness        -0.437
84           Q18E  abundance fitness        -0.119
85           Q18V  abundance fitness         -0.12
86           D27P  abundance fitness        -0.483
87           G48E  abundance fitness         0.107
88           E25A  abundance fitness         0.023
89           D47T  abundance fitness        -0.029
90            I8V  abundance fitness        -0.072
